assay: 14-consecutive day face mask inhalation toxicity and recovery; type: in vivo, dog; settings: both sexes, beagle, dog, in vivo, inhaled; high exposure level (60 min); read-out: no observed adverse effect level (NOAEL), deposited lung dose
Structures can show the parent of a compound that is named as a salt.

[
  {
    "COMPOUND": "CN[C@H](CC(C)C)C(=O)N[C@H]1C(=O)N[C@@H](CC(N)=O)C(=O)N[C@H]2C(=O)N[C@H]3C(=O)N[C@H](C(=O)N[C@H](C(=O)O)c4cc(O)cc(O)c4-c4cc3ccc4O)[C@H](O)c3ccc(c(Cl)c3)Oc3cc2cc(c3O[C@@H]2O[C@H](CO)[C@@H](O)[C@H](O)[C@H]2O[C@H]2C[C@](C)(N)[C@H](O)[C@H](C)O2)Oc2ccc(cc2Cl)[C@H]1O [Vancomycin HCl, vancomycin hydrochloride]",
    "READOUT_UNITS": "mg/kg",
    "NOAEL at 14 days": 9
  }
]
